These measurements were taken from patent US10011615B2.

Target: human A2a receptor (Homo sapiens, UniProt P29274)
Sequence (P29274 whole entry): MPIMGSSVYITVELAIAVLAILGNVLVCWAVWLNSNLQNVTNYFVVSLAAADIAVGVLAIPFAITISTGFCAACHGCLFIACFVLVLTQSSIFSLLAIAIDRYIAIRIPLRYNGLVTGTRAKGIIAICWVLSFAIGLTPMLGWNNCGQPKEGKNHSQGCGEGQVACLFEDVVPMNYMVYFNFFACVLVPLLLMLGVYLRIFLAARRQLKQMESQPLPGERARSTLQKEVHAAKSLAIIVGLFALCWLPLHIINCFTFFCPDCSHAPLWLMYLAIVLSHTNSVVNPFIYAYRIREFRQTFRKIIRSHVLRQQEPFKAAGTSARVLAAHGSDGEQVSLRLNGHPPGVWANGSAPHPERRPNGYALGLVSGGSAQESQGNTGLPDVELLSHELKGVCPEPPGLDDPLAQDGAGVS
Assay: A2a receptor competition binding assay using Scintillation Proximity technology
Conditions: membranes from HEK293 cells expressing human A2a receptor; 0.5 nM tritiated radioligand; SPA beads; 1 h room temperature
Procedure: Binding affinities of compounds of the invention for the human A2a receptor were determined in a competition binding assay using Scintillation Proximity technology. […] The beads were then allowed to settle to the bottom of the wells for 1 hr, after which the membrane-associated radioactivity was determined by scintillation counting in a TopCount microplate reader. Ki values were determined using the Cheng-Prusoff equation. […]
EC50 strictly less than 4 nM = T. Otherwise F.

Decide: EC50 of Cc1cccc2c1nc(N)n1nc(CCN3CCc4ccccc4C3)nc21 strictly below 4 nM? F

Decide: EC50 of COc1cccc2c1nc(N)n1nc(CN3CCc4ccc(CC(=O)Nc5cccnc5)cc4C3)nc21 strictly below 4 nM? F

Lab note: confirm whether the reported EC50 for this molecule is below 4 nM, equality not counting. molecule: COc1cccc2c1nc(N)n1nc(CCN3CCc4c(C5CC5)n[nH]c4C3)nc21 T

Find out if reported EC50 for COc1cccc2c1nc(N)n1nc(CCN3CCn4nc(C)cc4C3)nc21 is less than 4 nM T

Determine whether this molecule shows EC50 lower than 4 nM (ties excluded): COc1cccc2c1nc(N)n1nc(C[C@H](N3Cc4cccnc4C3)C(F)(F)F)nc21 F

EC50 strictly < 4 nM for this molecule? Nc1nc2c(OCF)cccc2c2nc(CCN3Cc4cccnc4C3)nn12 F

Would you kindly verify if EC50 of COc1cccc2c1nc(N)n1nc(CC(C)N3Cc4ccc(F)cc4C3)nc21 (stereo not shown) is strictly less than 4 nM? F

Hello, is EC50 of the following molecule strictly smaller than 4 nM? COc1cccc2c1nc(N)n1nc(CCN3Cc4cccnc4C3)nc21 F

EC50 strictly < 4 nM for this molecule? COc1cccc2c1nc(N)n1nc(CN3CCCCc4cccnc43)nc21 T

Given COc1cccc2c1nc(N)n1nc(CN3CCc4ccc(NC(C)=O)cc4C3)nc21 , is recorded EC50 strictly lower than 4 nM? F

Here's an entry: COc1cccc2c1nc(N)n1nc(CCN3CCCn4nc(C)cc4C3)nc21 . Is its EC50 below 4 nM? T

# check: EC50 < 4 nM for COc1cccc2c1nc(N)n1nc(CN3CCc4ccc(-c5cncnc5)cc4C3)nc21 F

Just wondering, is EC50 of CCCC(Cc1nc2c3cccc(OC)c3nc(N)n2n1)N1Cc2cccnc2C1 (stereo not shown) below 4 nM? F

Does CCOc1cccc2c1nc(N)n1nc(CN3CCc4cccnc4C3)nc21 have EC50 strictly under 4 nM? F

Quick check: EC50 of CCc1nnc2n1CCN(CCc1nc3c4ccc(F)cc4nc(N)n3n1)C2 under 4 nM? F

Field: below-cutoff. Rule: recorded EC50 strictly less than 4 nM. Subject: Nc1nc2c(F)cccc2c2nc(CCN3Cc4ccc(F)cc4C3)nn12 F

I'd appreciate it if you could check whether COc1cccc2c1nc(N)n1nc(CCN3CCc4[nH]nc(C(F)(F)F)c4C3)nc21 has EC50 smaller than 4 nM. T

Regarding COc1cccc2c1nc(N)n1nc(CN3Cc4ccc(-c5cncnc5)cc4C3)nc21 , kindly confirm whether its EC50 is beneath 4 nM. F

Determine whether this molecule shows EC50 lower than 4 nM (ties excluded): COc1cccc2c1nc(N)n1nc(CN3CCc4ncc(C(F)(F)F)cc4C3)nc21 F

====

Target: human A2a receptor (Homo sapiens, UniProt P29274)
Assay: A2a receptor competition binding assay using Scintillation Proximity technology
Conditions: membranes from HEK293 cells expressing human A2a receptor; 0.5 nM tritiated radioligand; SPA beads; 1 h room temperature
RECORDED_METRIC: pEC50
pEC50 is a log-scale quantity: -log10 of the concentration expressed in molar.

For COc1cccc2c1nc(N)n1nc(CCN3Cc4ccc(N5CCOCC5)nc4C3)nc21 , what is its reported pEC50? 8.16

Form field: reported pEC50 of COc1cccc2c1nc(N)n1nc(CCN3CCc4noc(C(F)(F)F)c4C3)nc21 8.68

Please look up its pEC50: Nc1nc2c(Cl)cccc2c2nc(CCN3Cc4ccc(F)cc4C3)nn12 7.92

# lookup: pEC50 of CCOC(=O)c1nnc2n1CCN(Cc1nc3c4cccc(OC)c4nc(N)n3n1)C2 6.96

I have this compound here, Nc1nc2cc(F)ccc2c2nc(CCN3CCc4ccccc4C3)nn12 , and I need its recorded pEC50. 7.43

Quick check: pEC50 of Nc1nc2cc(F)ccc2c2nc(CCN3Cc4cccnc4C3)nn12 ? 7.13

Given the compound COc1cccc2c1nc(N)n1nc(CCN3Cc4ccc(N5CCN(CC6CC6)CC5)nc4C3)nc21 , what is its reported pEC50? 8.17

Fill in: pEC50 of COc1cccc2c1nc(N)n1nc(CCN3Cc4ccc(N5CCN(C)CC5)nc4C3)nc21 is ___ 8.24

Which measured pEC50 value corresponds to COc1cccc2c1nc(N)n1nc(CCN3CCc4[nH]nc(C)c4C3)nc21 ? 8.19

====

Assignment: determine reported log10 EC50 for the given compounds.
Molecular target: UniProt P29274
Test: A2a receptor competition binding assay using Scintillation Proximity technology
Conditions: membranes from HEK293 cells expressing human A2a receptor; 0.5 nM tritiated radioligand; SPA beads; 1 h room temperature
Response schema: value (number) is log10 of EC50 in units of nM.

GET /values?readout=log10 EC50&system=UniProt P29274&item= COc1cccc2c1nc(N)n1nc(C[C@H](C)N3CCc4nc(C)oc4C3)nc21 0.79

Field: log10 EC50 (UniProt P29274). Entry: Nc1nc2c(F)cccc2c2nc(CCN3Cc4cnc(C(F)(F)F)nc4C3)nn12 1.63

Report log10 EC50 for Nc1nc2c(Br)cccc2c2nc(CN3CCc4cccnc4C3)nn12 tested on UniProt P29274. 0.94

Kindly state the measured log10 EC50 obtained for COc1cccc2c1nc(N)n1nc(CN3Cc4ccc(C(F)(F)F)cc4C3)nc21 with UniProt P29274. 0.93

Provide value of log10 EC50 for this record tested with UniProt P29274: COc1cccc2c1nc(N)n1nc(CN3Cc4ccc(Cl)nc4C3)nc21 1.21

What value of log10 EC50 on UniProt P29274 does COc1cccc2c1nc(N)n1nc(CN3CCn4cnnc4C3)nc21 have? 2.17

Form entry - test system: UniProt P29274; read-out: log10 EC50; compound: COc1cccc2c1nc(N)n1nc(CCN3CCn4c(nnc4SC)C3)nc21 0.60

Form field: log10 EC50 recorded for COc1cccc2c1nc(N)n1nc(CN3CCc4ccc(-c5cnn(C)c5C(F)(F)F)cc4C3)nc21 with UniProt P29274 (enter value) 0.45

# query: log10 EC50 | item COc1cc(F)cc2c1nc(N)n1nc(CN3Cc4cccnc4C3)nc21 | system: UniProt P29274 0.93

Entry COc1cccc2c1nc(N)n1nc(CCN3CCc4nc(C)sc4C3)nc21 , system UniProt P29274: what log10 EC50 was measured? 0.23

Under UniProt P29274: log10 EC50 value of COc1cccc2c1nc(N)n1nc(CN3CCCCc4ccccc43)nc21 ? 0.30

Checklist item: log10 EC50 tested on UniProt P29274, entry COc1cccc2c1nc(N)n1nc(C[C@@H](C(F)F)N3Cc4cccnc4C3)nc21 , value? 0.92

Kindly state the measured log10 EC50 obtained for COc1cccc2c1nc(N)n1nc(CCCN3Cc4cccc(F)c4C3)nc21 with UniProt P29274. 0.89

====

Target: human A2a receptor (Homo sapiens)
Test: A2a receptor competition binding assay using Scintillation Proximity technology
Conditions: membranes from HEK293 cells expressing human A2a receptor; 0.5 nM tritiated radioligand; SPA beads; 1 h room temperature
Method: Binding affinities of compounds of the invention for the human A2a receptor were determined in a competition binding assay using Scintillation Proximity technology. […] The beads were then allowed to settle to the bottom of the wells for 1 hr, after which the membrane-associated radioactivity was determined by scintillation counting in a TopCount microplate reader. Ki values were determined using the Cheng-Prusoff equation. […]
Counter-ions that a name gives are not always drawn.
So basically: is EC50 under 6 nM? Then MET. Not under? Then NOT MET.

Consider COc1cccc2c1nc(N)n1nc(CCN3CCc4cccnc4C3)nc21 [Ex-45] . Does its EC50 lie strictly below 6 nM? MET

Item COc1cccc2c1nc(N)n1nc(C[C@@H](N3Cc4cccnc4C3)C(F)(F)F)nc21 [Ex-110] : EC50 beneath 6 nM, strictly? NOT MET

For COc1cccc2c1nc(N)n1nc(CCN3CCc4nc(C)oc4C3)nc21 [Ex-28] , is the recorded EC50 below the cut-off of 6 nM? MET

Record COc1cccc2c1nc(N)n1nc(CCN3CCc4cccnc43)nc21 [Ex-21] : is its EC50 strictly below 6 nM? NOT MET

Report whether reported EC50 is lower than 6 nM (strictly) for COc1cccc2c1nc(N)n1nc(CN3CCCc4ccccc43)nc21 [Ex-119] MET

Please state whether EC50 is below 6 nM for COc1cccc2c1nc(N)n1nc(CN3CCCc4ncccc43)nc21 [Ex-133] NOT MET

Answer whether the molecule COc1cccc2c1nc(N)n1nc(C[C@H](C(F)F)N3Cc4cccnc4C3)nc21 [Ex-102] has EC50 strictly less than 6 nM NOT MET

I'd appreciate it if you could check whether COc1cccc2c1nc(N)n1nc(C[C@@H](C)N3Cc4cccnc4C3)nc21 [Ex-107] has EC50 smaller than 6 nM. NOT MET

Item COc1cccc2c1nc(N)n1nc(CC(=O)N3Cc4cccnc4C3)nc21 [Ex-77] : EC50 beneath 6 nM, strictly? NOT MET

Quick check: EC50 of COc1cccc2c1nc(N)n1nc(CN3CCc4ccccc4C3)nc21 [Ex-121] under 6 nM? MET

Quick check: does COc1cccc2c1nc(N)n1nc(CN3CCCCc4ccc(-c5ccccn5)nc43)nc21 [Ex-162] have EC50 under 6 nM? MET

Record COc1cccc2c1nc(N)n1nc(CCN3Cc4oc(C)nc4C(C)(C)C3)nc21 [Ex-235, TFA] : is its EC50 strictly below 6 nM? MET

Is it true that EC50 reported for COc1cccc2c1nc(N)n1nc(CCN3CCCn4nc(C#N)cc4C3)nc21 [Ex-61] is less than 6 nM? MET

Lab log: compare recorded EC50 with 6 nM; is it strictly lower for COc1cccc2c1nc(N)n1nc(CCN3CCn4c(Br)nnc4C3)nc21 [Ex-3] ? MET

# check: EC50 < 6 nM for COc1cccc2c1nc(N)n1nc(CCN3CCCn4nccc43)nc21 [Ex-59] NOT MET

Quick check: does Nc1nc2c(F)cccc2c2nc(CCN3CCCc4ccccc43)nn12 [Ex-84] have EC50 under 6 nM? NOT MET

Dear reviewer, please state whether COCc1cccc2c1nc(N)n1nc(CN3Cc4cccnc4C3)nc21 [Ex-198] has EC50 strictly beneath 6 nM. NOT MET

In the record for COc1cccc2c1nc(N)n1nc(CN3CCn4c(nnc4C(F)(F)F)C3)nc21 [Ex-153] , is EC50 less than 6 nM? NOT MET

Quick check: does N#Cc1cccc2c1nc(N)n1nc(CN3Cc4cccnc4C3)nc21 [Ex-197] have EC50 under 6 nM? NOT MET

Please indicate whether the reported EC50 of COc1cccc2c1nc(N)n1nc(CN3Cc4cnc(C(F)(F)F)nc4C3)nc21 [Ex-152] is strictly below 6 nM. NOT MET
